Biological target: PCK2 C306 (Q16822) (Homo sapiens)
Sequence (Q16822 33-640): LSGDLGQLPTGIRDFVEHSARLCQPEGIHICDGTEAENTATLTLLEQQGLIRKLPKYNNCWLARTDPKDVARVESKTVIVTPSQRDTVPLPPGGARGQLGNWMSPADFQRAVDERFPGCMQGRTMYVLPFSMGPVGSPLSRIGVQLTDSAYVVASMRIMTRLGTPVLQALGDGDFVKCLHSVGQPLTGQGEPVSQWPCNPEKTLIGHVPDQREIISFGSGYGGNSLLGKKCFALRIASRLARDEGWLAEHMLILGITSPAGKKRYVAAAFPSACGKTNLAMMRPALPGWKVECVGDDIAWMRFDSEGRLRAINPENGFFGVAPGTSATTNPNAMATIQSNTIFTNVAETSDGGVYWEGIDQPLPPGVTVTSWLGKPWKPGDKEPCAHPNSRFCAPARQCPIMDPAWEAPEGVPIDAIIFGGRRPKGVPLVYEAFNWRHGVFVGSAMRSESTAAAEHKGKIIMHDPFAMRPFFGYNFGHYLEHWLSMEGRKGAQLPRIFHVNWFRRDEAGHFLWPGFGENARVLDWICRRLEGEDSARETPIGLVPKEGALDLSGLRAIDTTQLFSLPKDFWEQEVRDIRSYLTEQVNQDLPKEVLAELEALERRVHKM
Experiment: Competitive isoTOP-ABPP, cell lysates
Type: binding
Details: 500 μm, in-vitro_ramos
isoTOP-ABPP reactivity ratio, Q16822_C306 listing for selected compounds.
Respond numerically, and do not add a unit to the figure.

Example compounds with recorded isoTOP-ABPP reactivity ratio, Q16822_C306:
C=CC(=O)N1CCC(c2noc3ccc(F)cc23)CC1    1.0
CCN(CC)c1ccc(S(N)(=O)=O)cc1NC(=O)CCl    1.1
C=CC(=O)N(Cc1cccnc1)c1cc(C(F)(F)F)cc(C(F)(F)F)c1    1.2
Cc1ccc(C=C(C#N)C(=O)NCCN2CCOCC2)cc1    1.0

Now examine the next entry.
isoTOP-ABPP reactivity ratio, Q16822_C306 lookup needed for O=C(CCl)Nc1ccccc1C1CCCCCC1 , thanks.
1.0

----------
isoTOP-ABPP ratio (reactivity profile), P24752_C413 listing for selected molecules.
Target: UniProtKB P24752
Assay: Competitive isoTOP-ABPP, cell lysates
Type: binding
Settings: 500 μm in-vitro ramos_231
Respond numerically, and do not add a unit to the figure.

O=C(CCl)N1CCN(CC(=O)N2CCOCC2)CC1    1.3
CC(Cl)C(=O)Nc1cc(C(F)(F)F)cc(C(F)(F)F)c1 (stereo not shown)    1.0
O=C(CCl)NC12CC3CC(CC(C3)C1)C2    1.4
O=C(CCl)N1CCOCC1    1.1
N#C/C(=C\c1cc(C(F)(F)F)cc(C(F)(F)F)c1)C(N)=O    1.1
COc1ccccc1OCCNC(=O)CCl    1.2

isoTOP-ABPP ratio (reactivity profile), P24752_C413 lookup needed for O=C(CCl)N1CCC(C(O)(c2ccccc2)c2ccccc2)CC1 , thanks.
20.0

----------
isoTOP-ABPP ratio Q9UJW0_C258 listing for selected molecules.
Biological target: cysteines in MDA-MB-231 and Ramos cells (Homo sapiens, UniProt Q9UJW0)
Sequence (Q9UJW0 whole entry, the tested form may be a part): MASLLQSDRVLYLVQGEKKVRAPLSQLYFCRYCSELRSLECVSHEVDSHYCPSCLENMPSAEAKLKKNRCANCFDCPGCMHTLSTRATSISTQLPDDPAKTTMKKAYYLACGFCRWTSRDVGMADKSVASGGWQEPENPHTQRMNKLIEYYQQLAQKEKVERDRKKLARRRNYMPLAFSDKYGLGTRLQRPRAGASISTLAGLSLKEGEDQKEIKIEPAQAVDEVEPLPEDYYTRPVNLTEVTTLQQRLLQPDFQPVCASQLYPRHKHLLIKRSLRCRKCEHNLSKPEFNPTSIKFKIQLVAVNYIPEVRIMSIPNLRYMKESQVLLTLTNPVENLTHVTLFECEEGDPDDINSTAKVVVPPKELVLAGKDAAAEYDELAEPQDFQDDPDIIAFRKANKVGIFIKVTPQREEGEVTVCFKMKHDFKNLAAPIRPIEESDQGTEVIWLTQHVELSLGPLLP
Test: Competitive isoTOP-ABPP in situ (fragment-treated cells)
Assay type: cell-based
Conditions: 200 μM, insitu, 231

O=C(CCl)Nc1cccc2ncccc12    1.1

Field: isoTOP-ABPP ratio Q9UJW0_C258 (cysteines in MDA-MB-231 and Ramos cells (Homo sapiens, UniProt Q9UJW0)). Entry: Cc1ccc(C=C(C#N)C(=O)NCCN2CCOCC2)cc1
0.7

Field: isoTOP-ABPP ratio Q9UJW0_C258 (cysteines in MDA-MB-231 and Ramos cells (Homo sapiens, UniProt Q9UJW0)). Entry: O=C(CCl)NC(=O)NC12CC3CC(CC(C3)C1)C2
20.0

Field: isoTOP-ABPP ratio Q9UJW0_C258 (cysteines in MDA-MB-231 and Ramos cells (Homo sapiens, UniProt Q9UJW0)). Entry: O=C(CCl)N1CCN(S(=O)(=O)c2ccccc2F)CC1
20.0

Field: isoTOP-ABPP ratio Q9UJW0_C258 (cysteines in MDA-MB-231 and Ramos cells (Homo sapiens, UniProt Q9UJW0)). Entry: CC(C)CCOCCNC(=O)CCl
0.8

Field: isoTOP-ABPP ratio Q9UJW0_C258 (cysteines in MDA-MB-231 and Ramos cells (Homo sapiens, UniProt Q9UJW0)). Entry: CC1CCc2ccccc2N1C(=O)CCl (stereo not drawn)
2.7

----------
Target: UniProt:Q02556
Sequence (Q02556 whole entry): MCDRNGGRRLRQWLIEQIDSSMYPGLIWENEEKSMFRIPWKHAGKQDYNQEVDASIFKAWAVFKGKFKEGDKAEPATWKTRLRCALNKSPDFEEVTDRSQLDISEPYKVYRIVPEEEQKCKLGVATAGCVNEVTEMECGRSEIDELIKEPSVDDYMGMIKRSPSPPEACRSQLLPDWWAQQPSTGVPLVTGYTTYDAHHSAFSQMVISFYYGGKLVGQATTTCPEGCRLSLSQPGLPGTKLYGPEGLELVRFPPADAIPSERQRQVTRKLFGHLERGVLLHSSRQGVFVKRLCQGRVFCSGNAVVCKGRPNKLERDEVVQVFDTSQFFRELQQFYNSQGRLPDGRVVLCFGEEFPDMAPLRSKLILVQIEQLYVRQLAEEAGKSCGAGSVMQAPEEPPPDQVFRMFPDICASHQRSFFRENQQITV
Assay: Competitive isoTOP-ABPP, cell lysates
Type: binding
Conditions: 500 μM, invitro, ramos
isoTOP-ABPP ratio, Q02556_C306 listing for selected compounds.
Respond numerically, and do not add a unit to the figure.

Example compounds with recorded isoTOP-ABPP ratio, Q02556_C306:
O=C(CCl)N1CCN(S(=O)(=O)c2ccccc2F)CC1    3.6
Cn1cc(S(=O)(=O)N2CCOCC2)cc1C(=O)NC(=O)CCl    3.1
O=C(CCl)NCCc1c[nH]c2ccccc12    0.7

Now examine the next entry.
isoTOP-ABPP ratio, Q02556_C306 lookup needed for C=CC(=O)N(c1ccccc1)c1ccc(Br)cc1 , thanks.
2.6

----------
Target: PDIA6 C55 (Q15084) (Homo sapiens, UniProt Q15084)
Sequence (Q15084 20-440): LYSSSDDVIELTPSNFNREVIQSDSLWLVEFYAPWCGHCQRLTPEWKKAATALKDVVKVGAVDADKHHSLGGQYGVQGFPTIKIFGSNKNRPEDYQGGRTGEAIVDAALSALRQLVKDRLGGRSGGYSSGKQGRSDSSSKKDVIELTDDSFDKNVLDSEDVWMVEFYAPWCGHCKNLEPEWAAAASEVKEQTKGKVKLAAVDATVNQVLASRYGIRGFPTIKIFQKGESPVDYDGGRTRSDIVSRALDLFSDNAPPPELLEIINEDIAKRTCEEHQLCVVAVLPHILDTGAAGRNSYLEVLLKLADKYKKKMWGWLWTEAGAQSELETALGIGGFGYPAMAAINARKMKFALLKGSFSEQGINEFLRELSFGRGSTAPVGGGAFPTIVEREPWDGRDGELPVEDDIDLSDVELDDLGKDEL
Assay: Competitive isoTOP-ABPP, cell lysates
Type: binding
Conditions: 500 μm in-vitro ramos_231
Entry flag: rule met if isoTOP-ABPP ratio (reactivity profile), Q15084_C55 reaches 1; rule not met if it does not.

COc1ccccc1OCCNC(=O)CCl [compound 28]    rule met
O=C(CCl)N1CCC(C(O)(c2ccccc2)c2ccccc2)CC1 [compound 20]    rule met
O=C(CCl)NC12CC3CC(CC(C3)C1)C2 [compound 21]    rule met
O=C(CCl)N1CCOCC1 [compound 22]    rule met

We next turn to a different compound, shown below.
Textbook exercise: given the entry N#C/C(=C\c1cc(C(F)(F)F)cc(C(F)(F)F)c1)C(N)=O [compound 23] , state whether its isoTOP-ABPP ratio (reactivity profile), Q15084_C55 is greater than or equal to 1.
rule not met

----------
Target: ACAT1 C119 (P24752) (Homo sapiens)
Sequence (P24752 34-427): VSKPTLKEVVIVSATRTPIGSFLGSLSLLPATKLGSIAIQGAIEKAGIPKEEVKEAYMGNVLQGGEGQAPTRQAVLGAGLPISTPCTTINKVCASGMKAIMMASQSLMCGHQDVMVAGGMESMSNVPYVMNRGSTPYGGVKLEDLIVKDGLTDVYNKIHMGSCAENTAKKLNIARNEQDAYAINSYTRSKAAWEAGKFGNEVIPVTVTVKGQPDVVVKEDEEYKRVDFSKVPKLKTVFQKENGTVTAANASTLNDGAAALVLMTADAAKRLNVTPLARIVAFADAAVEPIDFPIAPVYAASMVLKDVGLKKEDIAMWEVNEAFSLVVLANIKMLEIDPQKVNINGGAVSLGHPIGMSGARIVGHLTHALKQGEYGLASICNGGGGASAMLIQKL
Test: Competitive isoTOP-ABPP, cell lysates
Type: binding
Conditions: 500 μM, invitro, ramos
ATTRIBUTE MEASURED: isoTOP-ABPP ratio P24752_C119
Respond numerically, and do not add a unit to the figure.

Example compounds with recorded isoTOP-ABPP ratio P24752_C119:
O=C(CCl)NC(=O)NC12CC3CC(CC(C3)C1)C2 [compound 12]    0.7
O=C(CCl)NCCc1c[nH]c2ccccc12 [compound 13]    0.6
O=C(CCl)N1CCN(S(=O)(=O)c2ccccc2F)CC1 [compound 10]    1.4
Cn1cc(S(=O)(=O)N2CCOCC2)cc1C(=O)NC(=O)CCl [compound 11]    0.9

Now examine the next entry.
isoTOP-ABPP ratio P24752_C119 lookup needed for C=CC(=O)N(c1ccccc1)c1ccc(Br)cc1 [compound 5] , thanks.
2.4

----------
Target: cysteines in MDA-MB-231 and Ramos cells (Homo sapiens)
Assay: Competitive isoTOP-ABPP in situ (fragment-treated cells)
Assay type: cell-based
Conditions: 200 μM, insitu, 231
ATTRIBUTE MEASURED: isoTOP-ABPP ratio Q9ULW0_C536
Respond numerically, and do not add a unit to the figure.

Cc1ccc(C=C(C#N)C(=O)NCCN2CCOCC2)cc1 [compound 41]    1.2
CC(C)CCOCCNC(=O)CCl [compound 27]    1.1

isoTOP-ABPP ratio Q9ULW0_C536 lookup needed for C=CC(=O)Nc1cc(F)c(N2CCN(C(=O)OC(C)(C)C)CC2)c(F)c1 [compound 38] , thanks.
1.2

isoTOP-ABPP ratio Q9ULW0_C536 lookup needed for COc1ccccc1OCCNC(=O)CCl [compound 28] , thanks.
1.0

isoTOP-ABPP ratio Q9ULW0_C536 lookup needed for O=C(CCl)NC(=O)NC12CC3CC(CC(C3)C1)C2 [compound 12] , thanks.
20.0

isoTOP-ABPP ratio Q9ULW0_C536 lookup needed for O=C(CCl)Nc1cccc2ncccc12 [compound 51] , thanks.
1.4

----------
Target: cysteines in MDA-MB-231 and Ramos cells (Homo sapiens, UniProt A6NDU8)
Sequence (A6NDU8 whole entry, the tested form may be a part): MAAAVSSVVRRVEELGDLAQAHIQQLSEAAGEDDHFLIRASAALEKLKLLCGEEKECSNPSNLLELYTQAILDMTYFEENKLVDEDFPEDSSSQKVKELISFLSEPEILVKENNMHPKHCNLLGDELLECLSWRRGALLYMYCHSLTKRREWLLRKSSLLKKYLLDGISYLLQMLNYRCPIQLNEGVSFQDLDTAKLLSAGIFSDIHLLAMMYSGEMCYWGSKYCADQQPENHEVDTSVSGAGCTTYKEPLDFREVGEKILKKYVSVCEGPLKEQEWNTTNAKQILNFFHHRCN
Test: Competitive isoTOP-ABPP in situ (fragment-treated cells)
Type: cell-based
Settings: 200 μM, insitu, 231
ATTRIBUTE MEASURED: isoTOP-ABPP ratio A6NDU8_C179
Respond numerically, and do not add a unit to the figure.

O=C(CCl)N1CCN(S(=O)(=O)c2ccccc2F)CC1 [compound 10]    1.3
Cc1ccc(C=C(C#N)C(=O)NCCN2CCOCC2)cc1 [compound 41]    0.6
CC1CCc2ccccc2N1C(=O)CCl (centres unmarked) [compound 45]    20.0
O=C(CCl)NCCc1c[nH]c2ccccc12 [compound 13]    0.8
COc1ccccc1OCCNC(=O)CCl [compound 28]    0.8

Field: isoTOP-ABPP ratio A6NDU8_C179 (cysteines in MDA-MB-231 and Ramos cells (Homo sapiens, UniProt A6NDU8)). Entry: C=CC(=O)Nc1cc(F)c(N2CCN(C(=O)OC(C)(C)C)CC2)c(F)c1 [compound 38]
1.4

Field: isoTOP-ABPP ratio A6NDU8_C179 (cysteines in MDA-MB-231 and Ramos cells (Homo sapiens, UniProt A6NDU8)). Entry: CC(C)CCOCCNC(=O)CCl [compound 27]
0.7

Field: isoTOP-ABPP ratio A6NDU8_C179 (cysteines in MDA-MB-231 and Ramos cells (Homo sapiens, UniProt A6NDU8)). Entry: O=C(CCl)NC12CC3CC(CC(C3)C1)C2 [compound 21]
0.9
